# Study system: Beta-secretase 1 (Homo sapiens, UniProt P56817)
# Sequence (P56817 whole entry, the tested form may be a part): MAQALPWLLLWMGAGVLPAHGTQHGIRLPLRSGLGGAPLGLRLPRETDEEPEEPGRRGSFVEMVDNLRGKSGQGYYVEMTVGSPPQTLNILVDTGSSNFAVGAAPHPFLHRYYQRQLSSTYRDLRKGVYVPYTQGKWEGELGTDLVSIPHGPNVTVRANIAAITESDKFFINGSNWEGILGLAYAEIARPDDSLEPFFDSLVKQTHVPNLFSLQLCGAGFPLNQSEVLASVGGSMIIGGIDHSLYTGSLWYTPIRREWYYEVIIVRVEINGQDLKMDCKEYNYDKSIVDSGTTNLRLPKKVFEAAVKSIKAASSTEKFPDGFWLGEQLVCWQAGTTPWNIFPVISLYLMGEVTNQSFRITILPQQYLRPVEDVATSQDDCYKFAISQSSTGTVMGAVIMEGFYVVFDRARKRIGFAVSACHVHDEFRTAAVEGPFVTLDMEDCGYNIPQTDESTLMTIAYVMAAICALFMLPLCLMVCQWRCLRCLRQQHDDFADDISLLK
# Test method notes: Inhibition of BACE1 by ECL assay

Sample smiles: CC(C)S(=O)(=O)N(C)c1cc(C(=O)N[C@@H](Cc2ccccc2)[C@@H](N)CF)cc(N(C)C[C@H]2C[C@@H]2C)n1
Study system: Beta-secretase 1 (Homo sapiens, UniProt P56817)
IC50 / nM: 18
--
Sample smiles: CCCN(CC1CC1)c1cc(C(=O)N[C@H](CO)Cc2ccccc2)cc(N(C)S(=O)(=O)C(C)C)n1
Study system: Beta-secretase 1 (Homo sapiens, UniProt P56817)
IC50 / nM: 350
--
Sample smiles: CC(C)S(=O)(=O)N(C)c1cc(C(=O)N[C@H](CO)Cc2cc(F)cc(F)c2)cc(NC[C@H]2C[C@@H]2C)n1
Study system: Beta-secretase 1 (Homo sapiens, UniProt P56817)
IC50 / nM: 14
--
Sample smiles: CC(C)S(=O)(=O)N(C)c1cc(C(=O)N[C@@H](Cc2ccccc2)[C@@H](N)CF)cc(NC[C@H]2C[C@@H]2C)n1
Study system: Beta-secretase 1 (Homo sapiens, UniProt P56817)
IC50 / nM: 2
--
Sample smiles: CN(c1cc(C(=O)N[C@H](CO)Cc2cc(F)cc(F)c2)cc(NCC2CC2)n1)S(C)(=O)=O
Study system: Beta-secretase 1 (Homo sapiens, UniProt P56817)
IC50 / nM: 1100

---

# Study system: Beta-secretase 1 (Homo sapiens, UniProt P56817)
# Test method notes: Inhibition of BACE1 assessed as effect on soluble APPbeta N-terminal fragment secretion in HEK293T cells
# Format: cell-based, HEK-293T
Reported IC50 by item:

Sample smiles: CC(C)S(=O)(=O)N(C)c1cc(C(=O)N[C@@H](Cc2ccccc2)[C@@H](N)CF)cc(NC[C@H]2C[C@@H]2C)n1
Relational operator: =
IC50, nM: 49
--
Sample smiles: CC(C)S(=O)(=O)N(C)c1cc(C(=O)N[C@@H](Cc2ccccc2)[C@@H](N)CF)cc(N(C)C[C@H]2C[C@@H]2C)n1
Relational operator: =
IC50, nM: 910
--
Sample smiles: CC(C)S(=O)(=O)N(C)c1cc(C(=O)N[C@H](CO)Cc2cc(F)cc(F)c2)cc(NC[C@H]2C[C@@H]2C)n1
Relational operator: >
IC50, nM: 20000
--
Sample smiles: CCCN(CC1CC1)c1cc(C(=O)N[C@H](CO)Cc2ccccc2)cc(N(C)S(=O)(=O)C(C)C)n1
Relational operator: >
IC50, nM: 20000

---

# System: Brain
# Test method notes: Drug level in APP-YAC mouse brain at 50 mg/kg, iv
# Format: ADME, organism-based
# Parameters: dose 50 mg/kg, route intravenous
# Details: in vivo, read-out: Drug uptake
Measured quantity: concentration (nM)

Sample smiles: CC(C)S(=O)(=O)N(C)c1cc(C(=O)N[C@@H](Cc2ccccc2)[C@@H](N)CF)cc(NC[C@H]2C[C@@H]2C)n1
Readout number: 1900

---

# Test method notes: Drug level in APP-YAC mouse brain at 50 mg/kg, iv after 0.5 hrs
# Assay type: ADME, organism-based
# Set-up: dose 50 mg/kg, route intravenous
# Details: read-out: Drug uptake

Sample smiles: CC(C)S(=O)(=O)N(C)c1cc(C(=O)N[C@@H](Cc2ccccc2)[C@@H](N)CF)cc(NC[C@H]2C[C@@H]2C)n1
concentration at 0.5 h (µM): 5.8

---

# Test system: Brain
# Test method notes: Drug level in APP-YAC mouse brain at 25 mg/kg, iv
# Format: ADME, organism-based
# Set-up: dose 25 mg/kg, route intravenous
# Details: in vivo, read-out: Drug uptake
Measured quantity: concentration (nM)

Sample smiles: CC(C)S(=O)(=O)N(C)c1cc(C(=O)N[C@@H](Cc2ccccc2)[C@@H](N)CF)cc(NC[C@H]2C[C@@H]2C)n1
Scale unit: nM
Readout number: 700

---

# Test method notes: Oral bioavailability in rat
# Format: ADME, organism-based
# Details: in vivo

Sample smiles: CC(C)S(=O)(=O)N(C)c1cc(C(=O)N[C@@H](Cc2ccccc2)[C@@H](N)CF)cc(NC[C@H]2C[C@@H]2C)n1
Scale unit: %
bioavailability: 13
--
Sample smiles: CC(C)S(=O)(=O)N(C)c1cc(C(=O)N[C@@H](Cc2ccccc2)[C@@H](N)CF)cc(N(C)C[C@H]2C[C@@H]2C)n1
Scale unit: %
bioavailability: 8
